meta.source: patent US11834453B2

measuredTarget: ErbB2 insYVMA (HER2-YVMA, SEQ ID NO: 2) (Homo sapiens, UniProt P04626, INS775YVMA/P1170A)
Sequence (P04626 with tags, fused parts or gaps INS775YVMA/P1170A limits assumed): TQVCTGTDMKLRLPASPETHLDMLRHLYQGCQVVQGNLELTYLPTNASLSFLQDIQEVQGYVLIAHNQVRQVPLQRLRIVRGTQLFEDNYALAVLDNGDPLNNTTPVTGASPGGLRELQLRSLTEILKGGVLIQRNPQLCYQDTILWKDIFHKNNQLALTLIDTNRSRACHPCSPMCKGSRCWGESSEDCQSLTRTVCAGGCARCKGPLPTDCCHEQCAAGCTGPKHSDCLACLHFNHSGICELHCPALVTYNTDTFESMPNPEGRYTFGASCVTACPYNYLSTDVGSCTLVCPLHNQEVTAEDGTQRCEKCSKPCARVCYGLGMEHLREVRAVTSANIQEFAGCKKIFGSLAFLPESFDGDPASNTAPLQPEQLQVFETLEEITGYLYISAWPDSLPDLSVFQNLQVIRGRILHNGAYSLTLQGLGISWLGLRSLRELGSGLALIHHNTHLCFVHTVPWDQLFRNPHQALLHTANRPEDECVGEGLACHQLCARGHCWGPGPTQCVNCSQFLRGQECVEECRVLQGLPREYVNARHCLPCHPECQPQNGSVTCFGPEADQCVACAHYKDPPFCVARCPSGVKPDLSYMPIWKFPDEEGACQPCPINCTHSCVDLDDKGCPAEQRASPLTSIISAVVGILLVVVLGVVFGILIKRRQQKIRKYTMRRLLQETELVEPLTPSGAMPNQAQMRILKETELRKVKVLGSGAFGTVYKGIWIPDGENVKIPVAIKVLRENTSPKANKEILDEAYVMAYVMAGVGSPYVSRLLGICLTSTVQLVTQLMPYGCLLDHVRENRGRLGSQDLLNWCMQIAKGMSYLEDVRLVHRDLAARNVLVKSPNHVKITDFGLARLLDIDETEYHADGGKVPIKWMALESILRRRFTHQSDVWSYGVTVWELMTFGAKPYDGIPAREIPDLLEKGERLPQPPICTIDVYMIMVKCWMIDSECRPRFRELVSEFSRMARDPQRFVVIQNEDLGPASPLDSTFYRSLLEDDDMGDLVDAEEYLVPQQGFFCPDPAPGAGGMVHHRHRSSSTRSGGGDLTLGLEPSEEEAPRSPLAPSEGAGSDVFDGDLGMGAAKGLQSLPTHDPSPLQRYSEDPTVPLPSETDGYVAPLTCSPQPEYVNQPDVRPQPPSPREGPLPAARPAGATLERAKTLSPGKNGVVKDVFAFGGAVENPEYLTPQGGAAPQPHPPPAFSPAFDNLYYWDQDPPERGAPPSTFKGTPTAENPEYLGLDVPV
assayProtocol: biochemical
appliedConditions: ErbB2 insYVMA enzyme assay; read-out: Assay 1 IC50
measuredEndpoint: IC50
Answer with the value and then the unit.

Recorded results for 3 compounds are shown here.
compound	measuredTarget	val
Cc1cc(Nc2ncnc3cnc(N4C[C@@H]5[C@H](C4)[C@H]4CC[C@@H]5O4)nc23)ccc1Oc1ccc2c(c1)ncn2C	ErbB2 insYVMA (HER2-YVMA, SEQ ID NO: 2) (Homo sapiens, UniProt P04626, INS775YVMA/P1170A)	46.4 nM
Cc1cc(Nc2ncnc3cnc(N[C@@H]4CNCC4(F)F)nc23)ccc1Oc1ccc2c(c1)ncn2C	ErbB2 insYVMA (HER2-YVMA, SEQ ID NO: 2) (Homo sapiens, UniProt P04626, INS775YVMA/P1170A)	17.6 nM
Cc1cc(Nc2ncnc3cnc(N4CCC[C@@H]4C(F)F)nc23)ccc1Oc1ccc2c(c1)ncn2C	ErbB2 insYVMA (HER2-YVMA, SEQ ID NO: 2) (Homo sapiens, UniProt P04626, INS775YVMA/P1170A)	205 nM

Give one value of IC50 per listed compound.
1. Cc1cc(Nc2ncnc3cnc(N4C[C@H]5C[C@@H]4CO5)nc23)c(F)cc1Oc1ccc2c(c1)ncn2C
2. CN(CC(C)(C)O)c1ncc2ncnc(Nc3ccc(Oc4ccn5ncnc5c4)c(Cl)c3)c2n1
3. Cc1cc(Nc2ncnc3cnc(N4CC[C@]45CCOC5)nc23)ccc1Oc1ccc2c(c1)ncn2C (single isomer, unassigned) [Example 93b]
4. Cc1cc(Nc2ncnc3cnc(N4CC[C@H](C#N)C4)nc23)ccc1Oc1ccc2c(c1)ncn2C

1. 29.4 nM
2. 15.7 nM
3. 16.2 nM
4. 21.8 nM

###

The following compounds have recorded IC50 on ErbB2 WT (Homo sapiens (Human), UniProt P04626).
Sequence (P04626 23-1255): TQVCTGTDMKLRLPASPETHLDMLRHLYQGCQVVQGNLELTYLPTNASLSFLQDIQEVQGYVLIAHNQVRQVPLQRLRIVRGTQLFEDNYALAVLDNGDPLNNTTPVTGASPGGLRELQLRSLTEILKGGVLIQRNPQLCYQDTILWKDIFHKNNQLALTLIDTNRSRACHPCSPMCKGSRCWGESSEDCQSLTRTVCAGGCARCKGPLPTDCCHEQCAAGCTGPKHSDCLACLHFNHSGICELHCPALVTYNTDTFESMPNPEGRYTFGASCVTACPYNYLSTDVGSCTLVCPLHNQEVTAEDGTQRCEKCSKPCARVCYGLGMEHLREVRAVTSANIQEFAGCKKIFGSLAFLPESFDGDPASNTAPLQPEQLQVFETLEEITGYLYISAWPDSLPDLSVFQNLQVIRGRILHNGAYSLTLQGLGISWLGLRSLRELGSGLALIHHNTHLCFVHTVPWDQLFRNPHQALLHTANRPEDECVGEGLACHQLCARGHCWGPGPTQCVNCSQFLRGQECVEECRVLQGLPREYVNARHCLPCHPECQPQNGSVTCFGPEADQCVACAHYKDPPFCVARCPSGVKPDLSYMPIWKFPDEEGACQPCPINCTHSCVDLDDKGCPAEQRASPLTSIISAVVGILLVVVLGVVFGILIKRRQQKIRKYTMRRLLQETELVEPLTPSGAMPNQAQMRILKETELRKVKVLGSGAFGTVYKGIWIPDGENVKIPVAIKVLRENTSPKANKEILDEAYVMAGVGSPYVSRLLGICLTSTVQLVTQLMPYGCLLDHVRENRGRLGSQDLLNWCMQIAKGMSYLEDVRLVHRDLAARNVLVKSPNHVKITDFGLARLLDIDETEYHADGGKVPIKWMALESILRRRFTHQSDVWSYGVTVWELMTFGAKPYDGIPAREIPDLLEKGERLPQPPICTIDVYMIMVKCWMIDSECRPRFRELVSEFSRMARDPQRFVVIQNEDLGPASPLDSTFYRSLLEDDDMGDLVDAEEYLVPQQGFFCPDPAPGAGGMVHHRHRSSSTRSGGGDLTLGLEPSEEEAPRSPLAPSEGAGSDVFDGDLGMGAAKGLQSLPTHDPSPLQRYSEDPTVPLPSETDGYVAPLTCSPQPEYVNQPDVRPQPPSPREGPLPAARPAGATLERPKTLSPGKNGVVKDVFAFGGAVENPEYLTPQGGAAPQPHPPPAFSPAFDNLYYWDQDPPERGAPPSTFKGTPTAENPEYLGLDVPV
Numbers only, in nM.

compound	IC50 (nM)
Cc1cc(Nc2ncnc3cnc(N(C)C4CC4)nc23)ccc1Oc1ccc2c(c1)ncn2C [Example 31]	158
Cn1cnc2cc(Oc3ccc(Nc4ncnc5cnc(N6C[C@@H]7[C@@H](C#N)[C@@H]7C6)nc45)cc3Cl)ccc21 [Example 393]	237
Cc1cc(Nc2ncnc3cnc(N4CC[C@@H](S(C)(=O)=O)C4)nc23)ccc1Oc1ccc2c(c1)ncn2C [Example 125]	55.6
Cn1cnc2cc(Oc3ccc(Nc4ncnc5cnc(N6CC[C@H](CC#N)C6)nc45)cc3Cl)ccc21 [Example 358]	35.8
Cc1cc(Nc2ncnc3cnc(N4CC[C@H]4C(C)(C)O)nc23)ccc1Oc1ccc2c(c1)ncn2C [Example 407]	117

Give one value of IC50 per listed compound.
1. Cc1cc(Nc2ncnc3cnc(N4CC[C@]45CCOC5)nc23)ccc1Oc1ccn2ncnc2c1 [Example 374]
2. Cc1cc(Nc2ncnc3cnc(O[C@H]4CCNC[C@H]4F)nc23)ccc1Oc1ccc2c(c1)ncn2C [Example 284]
3. Cc1cc(Nc2ncnc3cnc(N4CCOCC4)nc23)c(F)cc1Oc1ccc2c(c1)ncn2C.O=C(O)C(F)(F)F [Example 78, 2,2,2-trifluoroacetate]
4. Cc1c(Oc2ccn3ncnc3c2)ccc(Nc2ncnc3cnc(N4C[C@@H]5CC4CO5)nc23)c1F [Example 313]
5. Cc1cc(Nc2ncnc3cnc(N4CCC(CC#N)C4)nc23)ccc1Oc1ccc2c(c1)ncn2C (stereo not drawn) [Example 192]
6. CO[C@H]1C[C@@H](Nc2ncc3ncnc(Nc4ccc(Oc5ccc6c(c5)ncn6C)c(C)c4)c3n2)C1 [Example 260]
7. Cc1cc(Nc2ncnc3cnc(N4CCC4)nc23)ccc1Oc1ccc2c(c1)ncn2C [Example 36]

14.2
681
422
40.4
44.8
42
64.6

Give one value of IC50 per listed compound.
1. Cc1cc(Nc2ncnc3cnc(N(C)[C@H]4C[C@@H](C(C)(C)O)C4)nc23)ccc1Oc1ccc2c(c1)ncn2C [Example 467]
2. Cc1cc(Nc2ncnc3cnc(N4C[C@@H]5C[C@H]4C[C@@H]5O)nc23)ccc1Oc1ccc2c(c1)ncn2C [Example 470]
3. CN(CC(C)(C)O)c1ncc2ncnc(Nc3ccc(Oc4ccc5c(c4)ncn5C)c(Cl)c3)c2n1 [Example 456]

1: 34.5; 2: 52.3; 3: 69.8
